Assay: NCI Yeast Anticancer Drug Screen. Data for the wt1 strain (AID 149);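 further: 0% = growth of vehicle-treated wt1 cultures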
Details: S. cerevisiae wt1 strain (SPY 50644) growth inhibition; at 100.0 µM
This is part of a sample that, as a whole, favours compounds with a hit. Of some 79,000 tested, about 15% had one in any assay. The source made the active and inactive calls. No stated cut-off is given here; in the data, active means growth inhibition above about 70%; inactive means the rest.
Parameter call: string, one of active, inactive

Input line: Could you please tell me the result logged for O=C(O)CCCC1CCCc2c1ccc1ccccc21 (stereo not drawn) in this assay?
Output line: active

Input line: How about this compound: O=Cc1ccc2c(c1)C(=O)c1ccccc1C2=O
Output line: inactive

Input line: Further, for O=C1C(Br)=C(c2ccccc2)O/C1=C/C(=O)c1ccc(Br)cc1 ?
Output line: inactive

====

Experiment: NCI Yeast Anticancer Drug Screen. Data for the bub3 strain (AID 167)
Settings: S. cerevisiae bub3 mutant strain, at 1.2 µM, hits give high values
About 79,000 compounds went through this panel and 15% of them were active in at least one assay; those are over-represented in the sample as a whole.
Record form. Attribute: growth inhibition. Fill in for each entry.
Record the value in %, omitting the unit from your answer.

Input line: Give the measured growth inhibition of CNCCCNc1c2ccccc2nc2cccc([N+](=O)[O-])c12 .
Output line: -12

Input line: Please answer likewise for NC(=S)NC(=S)Nc1ccccc1
Output line: -11

Input line: Same again, this time with O=C1OC(OC/C(Br)=C(\Br)COC2OC(=O)C(Cl)=C2Cl)C(Cl)=C1Cl (stereo not drawn)
Output line: 0

====

Please provide measured growth inhibition for the entries that follow.
Assay: NCI Yeast Anticancer Drug Screen. Data for the mec2-1 strain (AID 157)
Settings: S. cerevisiae mec2-1 strain, at 50.0 µM, hits give high values
This is part of a sample that, as a whole, favours compounds with a hit. Of some 79,000 tested, about 15% had one in any assay.
Number in %, nothing else.

Input line: Can you share its growth inhibition? I mean this compound: CC(=O)OC1CC2C(C)(C)C(=O)C=C[C@]2(C)C2CCC3(C)C(=CCC3[C@H](CO)C[C@H](O)C(=O)C(C)(C)O)[C@]12C (some centres not stated)
Output line: 42.8

Input line: Now give it for Cc1cc(O)c(C(C)C)cc1C1(c2cc(C(C)C)c(O)cc2C)OC(=O)c2ccccc21 too.
Output line: 91.7

Input line: Now consider CCC(C)(C)c1ccc(Oc2cccc(C(=O)O)c2)cc1 .
Output line: 78.8

Input line: Try the compound CN1C(=O)c2ccc3ccccc3c2C1=O
Output line: 41.9

Input line: How about this compound: C[Si](C)(C)/C=C/CCNC(C#N)c1ccccc1 (configuration not stated)
Output line: 91.8

Input line: Also NC1CCCCC1N.Nc1c(N=Nc2ccc(-c3ccc(N=Nc4cc(S(=O)(=O)[O-])c5ccccc5c4N)cc3)cc2)cc(S(=O)(=O)[O-])c2ccccc12.[OH3+].[OH3+].[Pt+4] ?
Output line: 80.9

Input line: Same read-out for Nc1ccc2c(c1)C(=O)c1ccc(F)cc1-2 ?
Output line: 19.6

Input line: Let us now turn to CSc1nc(C)c(CCOC(C)=O)c(N=P(c2ccccc2)(c2ccccc2)c2ccccc2)n1
Output line: 94.3

Input line: Now consider c1ccc(Cc2cc(-c3ccccc3)n[nH]2)cc1 and answer again.
Output line: 97

Input line: Now consider O=c1ccc2ccccc2c2ccccc12 .
Output line: 93.9

Input line: Moving on to Cc1ccc(Sc2ccccc2N)cc1
Output line: 92.3

Input line: Please do the same for CC(=O)OCC1OC2OC(=O)NC2C(OC(C)=O)C1OC(C)=O (configuration not stated) as well.
Output line: 10.9

Input line: Can you check O=C1CSC(c2cccc(Cl)c2)N1c1ccc(-c2ccc(-n3c(-c4ccccc4)nc4ccccc4c3=O)cc2)cc1 (configuration not stated) next?
Output line: 68.5

Input line: Try this compound next: O=C(O)Cc1cc(F)ccc1C(=O)O
Output line: 29.9

Input line: Same again, this time with CC1=NOC(=O)/C1=C/c1ccc2c(c1)OCO2
Output line: 78.6

Input line: Now consider Oc1ccc(O)c(Cc2ccccc2)c1 and answer again.
Output line: 84.3

Input line: Same for COc1oc(C(=O)NC2CCCCC2)c(-c2ccc(Cl)cc2)c1S(=O)(=O)c1ccccc1
Output line: 78.8

Input line: Now the same for C=C1CC(CCCl)(c2ccccc2)OC1=O (configuration not stated)
Output line: 93.5

Input line: Here is the next compound: CCC(C)OC(=O)Nc1ccc(C)c(NC(=O)OC(C)CC)c1 (configuration not stated)
Output line: 76

Input line: What about Cc1ccc(S/C(=C\C(=O)O)c2ccccc2)cc1 ?
Output line: 28.9

Input line: Then what about the compound NC(=O)c1c([N+](=O)[O-])cc(C(F)(F)F)cc1[N+](=O)[O-] ?
Output line: 97.2

Input line: CC[n+]1oc(C(=O)c2ccc(Cl)cc2)c(-c2ccccc2)c1-c1ccccc1.[Cl][Fe]([Cl])([Cl])[Cl] , same question.
Output line: 80
